target: UniProt:P50406; assay: Displacement of radioligand from human recombinant 5HT6 receptor in competitive radioligand binding assay
result_type: IC50

# IC50 (molecule: "CN(C)c1nc2c(S(=O)(=O)c3ccccc3)nnn2c2ccsc12" ) is > 300 nM

----------
target: 5-hydroxytryptamine receptor 6 (Homo sapiens, UniProt P50406); test: Antagonist activity at human recombinant 5HT6 receptor expressed in HEK293 cells assessed as inhibition of serotonin-induced cAMP production; assay type: functional, cell-based
Sequence (P50406 whole entry): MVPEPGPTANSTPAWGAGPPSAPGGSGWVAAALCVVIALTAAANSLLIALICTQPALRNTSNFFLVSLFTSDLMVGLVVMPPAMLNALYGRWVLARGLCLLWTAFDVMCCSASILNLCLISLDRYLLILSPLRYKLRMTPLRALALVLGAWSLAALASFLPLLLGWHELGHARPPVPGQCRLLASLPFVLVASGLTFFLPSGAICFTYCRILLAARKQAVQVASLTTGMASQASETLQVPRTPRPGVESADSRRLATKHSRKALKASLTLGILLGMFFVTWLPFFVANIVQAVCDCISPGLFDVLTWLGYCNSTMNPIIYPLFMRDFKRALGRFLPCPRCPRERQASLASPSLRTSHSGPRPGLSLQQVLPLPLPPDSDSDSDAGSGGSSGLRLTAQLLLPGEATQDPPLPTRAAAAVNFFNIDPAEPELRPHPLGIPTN
The entries below come with measured pIC50 values attached.
// pIC50: -log10(molar conc.)

Examples from the recorded data:
compound	pIC50
COCCCNc1nc2c(S(=O)(=O)c3cc(C)ccc3C)nnn2c2ccsc12	5.89
Nc1nc2c(S(=O)(=O)c3ccc(Br)cc3)nnn2c2ccsc12	6.21
CN(Cc1ccccc1)c1nc2c(S(=O)(=O)c3cccc(Cl)c3)nnn2c2ccsc12	6.04
Cc1ccc(S(=O)(=O)c2nnn3c2nc(NCc2ccco2)c2sccc23)cc1C	6.11
NC(=O)C1CCN(c2nc3c(S(=O)(=O)c4ccccc4)nnn3c3ccsc23)CC1	5.70

Record summary for CC(Cc1ccccc1)Nc1nc2c(S(=O)(=O)c3ccccc3)nnn2c2ccsc12 (stereo not given) : reported pIC50 = 5.97

The compound listed as "Cc1ccc(C)c(S(=O)(=O)c2nnn3c2nc(N2CCC(C)CC2)c2sccc23)c1" has a reported pIC50 of 5.70

Noted for "O=S(=O)(c1ccccc1)c1nnn2c1nc(NC1CCCCC1)c1sccc12" : its pIC50 reads 6.70

The reported pIC50 of the compound "Cc1ccc(C)c(Nc2nc3c(S(=O)(=O)c4cccc(Cl)c4)nnn3c3ccsc23)c1" was 6.13

compound "Cc1ccc(S(=O)(=O)c2nnn3c2nc(NCCc2ccccc2)c2sccc23)cc1" , pIC50 observed: 6.02

----------
As shown below, each of these molecules has a reported pIC50 value.
target: 5-hydroxytryptamine receptor 6 (Homo sapiens, UniProt P50406); experiment: Antagonist activity at human recombinant 5HT6 receptor expressed in HEK293 cells assessed as inhibition of serotonin-induced cAMP production; assay type: functional, cell-based
// field semantics: pIC50 = negative decimal log of concentration (mol/L)

molecule	value_observed
Cc1cccc(Nc2nc3c(S(=O)(=O)c4ccc(C(C)C)cc4)nnn3c3ccsc23)c1C	6.00

Per the record, O=S(=O)(c1ccccc1)c1nnn2c1nc(NCC1CCCO1)c1sccc12 (stereo not given) has pIC50 of 7.20

Notebook: "Cc1ccc(S(=O)(=O)c2nnn3c2nc(NC2CCCCCC2)c2sccc23)cc1" , pIC50 read as 6.10

Reported pIC50 of "Cc1ccc(S(=O)(=O)c2nnn3c2nc(Nc2cccc(C)c2C)c2sccc23)cc1" : 6.23

For reference, reported pIC50 for "CCc1ccc(S(=O)(=O)c2nnn3c2nc(Nc2cccc(C)c2)c2sccc23)cc1" stands at 5.76

Reported pIC50 for "O=S(=O)(c1ccccc1)c1nnn2c1nc(NCc1ccccc1)c1sccc12" was 7.23

The recorded pIC50 for entry "Cc1ccc(S(=O)(=O)c2nnn3c2nc(NC2CCCCCC2)c2sccc23)cc1C" equals 6.46

molecule "Cc1ccc(S(=O)(=O)c2nnn3c2nc(NC(C)C)c2sccc23)cc1C" , pIC50 observed: 6.12

Value of pIC50 reported for the molecule "CCN(CC)c1nc2c(S(=O)(=O)c3cccc(Cl)c3)nnn2c2ccsc12" is 5.91

For "O=S(=O)(c1cccc(Cl)c1)c1nnn2c1nc(Nc1cccc(C(F)(F)F)c1)c1sccc12" the molecule record lists pIC50 as 5.97

Summary for this molecule, "Cc1ccc(C)c(S(=O)(=O)c2nnn3c2nc(NC2CCCC2)c2sccc23)c1" : pIC50 is 6.23

// pIC50 value for "Cc1ccc(S(=O)(=O)c2nnn3c2nc(NCc2cccs2)c2sccc23)cc1" : 6.66

Record "Cc1ccc(S(=O)(=O)c2nnn3c2nc(NC2CCCC2)c2sccc23)cc1" , field pIC50: 5.69

Summary for this molecule, "CCN(Cc1ccccc1)c1nc2c(S(=O)(=O)c3cc(C)ccc3C)nnn2c2ccsc12" : pIC50 is 5.96

Given item "O=S(=O)(c1ccccc1)c1nnn2c1nc(NC1CCCC1)c1sccc12" , the value recorded as its pIC50 is 6.85

Query "CC(C)c1ccc(S(=O)(=O)c2nnn3c2nc(NCc2ccccc2Cl)c2sccc23)cc1" yields pIC50 of 5.74

Given item "O=S(=O)(c1cccc(Cl)c1)c1nnn2c1nc(Nc1ccccc1)c1sccc12" , the value recorded as its pIC50 is 6.04

Entry "Cc1cccc(Nc2nc3c(S(=O)(=O)c4ccc(Cl)cc4)nnn3c3ccsc23)c1C" ; pIC50 = 6.10

Sure, the documented pIC50 for "COc1ccccc1Nc1nc2c(S(=O)(=O)c3ccc(Cl)cc3)nnn2c2ccsc12" is 5.94

# molecule "COCCCNc1nc2c(S(=O)(=O)c3cccc(Cl)c3)nnn2c2ccsc12" ; its pIC50 = 6.82

For record "O=S(=O)(c1cccc(Cl)c1)c1nnn2c1nc(NCc1ccc(F)cc1)c1sccc12" the listed pIC50 is 6.32

Lab note: measured pIC50 of "Cc1ccc(C)c(S(=O)(=O)c2nnn3c2nc(NC(C)C)c2sccc23)c1" was 6.46

----------
target: 5-hydroxytryptamine receptor 6 (Homo sapiens); experiment: Binding affinity to human recombinant 5HT6 receptor expressed in HEK293 cells by radioligand displacement assay; format: cell-based
In this section we review reported pIC50 values for a set of compounds.
pIC50 is defined as minus the log10 of a concentration measured in mol/L.

Some solved cases for reference:
compound	value_observed
O=S(=O)(c1ccccc1)c1nnn2c1nc(NCC1CCCO1)c1sccc12 (stereo unspecified)	7.76
O=S(=O)(c1cccc(Cl)c1)c1nnn2c1nc(NCc1cccnc1)c1sccc12	7.50
O=S(=O)(c1ccc(Br)cc1)c1nnn2c1nc(NCc1ccc3c(c1)OCO3)c1sccc12	7.21
Cc1ccc(C)c(S(=O)(=O)c2nnn3c2nc(N)c2sccc23)c1	7.00
O=S(=O)(c1ccccc1)c1nnn2c1nc(NC1CCCCC1)c1sccc12	8.16
CC(C)Nc1nc2c(S(=O)(=O)c3ccccc3)nnn2c2ccsc12	7.19

Recorded pIC50 (compound "O=S(=O)(c1ccccc1)c1nnn2c1nc(NCc1ccco1)c1sccc12" ): 8.21

Kindly note the recorded pIC50 for "O=S(=O)(c1ccccc1)c1nnn2c1nc(NC1CCCC1)c1sccc12" , which is 7.92

Sample "CC12CC3CC(C)(C1)CC(Nc1nc4c(S(=O)(=O)c5ccccc5)nnn4c4ccsc14)(C3)C2" ; pIC50 observed: 7.25

So for "Cc1ccc(C)c(S(=O)(=O)c2nnn3c2nc(NC(C)C)c2sccc23)c1" , the logged pIC50 turned out to be 7.55

"CC(C)CCNc1nc2c(S(=O)(=O)c3ccc(Br)cc3)nnn2c2ccsc12" yielded pIC50 of 7.46

Lab book: pIC50 of "O=S(=O)(c1ccccc1)c1nnn2c1nc(N1CCCC1)c1sccc12" noted as 6.73

----------
molecular target: 5-hydroxytryptamine receptor 6 (Homo sapiens, UniProt P50406); assay: Antagonist activity at human recombinant 5HT6 receptor expressed in HEK293 cells assessed as inhibition of serotonin-induced cAMP production; type: functional, cell-based
pIC50: −log10 of the molar value.
So basically: pIC50 at 6 or higher? That is fulfilled. Lower than 6? That is not fulfilled.

Here are 4 molecules together with their reported answers.
molecule	category
COCCCNc1nc2c(S(=O)(=O)c3ccc(C)c(C)c3)nnn2c2ccsc12	not fulfilled
CC1CCCN(c2nc3c(S(=O)(=O)c4ccccc4)nnn3c3ccsc23)C1 (stereo not given)	not fulfilled
CC1CCCN(c2nc3c(S(=O)(=O)c4cccc(Cl)c4)nnn3c3ccsc23)C1 (stereo not given)	not fulfilled
CC(C)CCNc1nc2c(S(=O)(=O)c3cccc(Cl)c3)nnn2c2ccsc12	fulfilled

Turning now to a further molecule:
Prompt: Could you verify whether the entry "COc1cccc(CNc2nc3c(S(=O)(=O)c4ccc(C)cc4)nnn3c3ccsc23)c1" shows pIC50 of no less than 6?
Completion: not fulfilled

----------
biological target: 5-hydroxytryptamine receptor 6 (Homo sapiens); assay: Binding affinity to human recombinant 5HT6 receptor expressed in HEK293 cells by radioligand displacement assay; assay type: cell-based
// reported Ki for each item listed
Write it as a number; the unit nM goes unstated.

Examples from the recorded data:
molecule	result_type	value_observed
CN(Cc1ccccc1)c1nc2c(S(=O)(=O)c3ccccc3)nnn2c2ccsc12	Ki	2.3
CC(C)Nc1nc2c(S(=O)(=O)c3ccccc3)nnn2c2ccsc12	Ki	30.2

Lab note: measured Ki of "CC(C)CCNc1nc2c(S(=O)(=O)c3ccc(Br)cc3)nnn2c2ccsc12" was 15.9

Notebook: "O=S(=O)(c1cccc(Cl)c1)c1nnn2c1nc(NCc1cccnc1)c1sccc12" , Ki read as 14.7

Entry "CC12CC3CC(C)(C1)CC(Nc1nc4c(S(=O)(=O)c5ccccc5)nnn4c4ccsc14)(C3)C2" — recorded Ki = 26.3
